Where do these numbers come from? They come from patent US10626125B2.

Biological target: human recombinant Monoacylglycerol Lipase (Homo sapiens, UniProt Q99685)
Assay: MAGL enzymatic assay (IC50; 7-HCA substrate added at T=0 min or T=30 min)
Format: biochemical
Settings: substrate 7-HCA added immediately (T=0 min); geometric mean of 2-5 determinations unless otherwise indicated; read-out: MAGL (T = 0 min) IC50
Recorded pIC50 values for a group of molecules are listed next.
Expect pIC50 as a plain number equal to -log10 of the molar concentration.

Please review the following examples before continuing.
| molecule | target_of_assay | pIC50 |
| --- | --- | --- |
| O=C(O[C@H](CO)C(F)(F)F)N1CCC2(CC1)CC(Oc1ccc(F)cn1)C2 [Example 88] | human recombinant Monoacylglycerol Lipase (Homo sapiens, UniProt Q99685) | 7.80 |
| N#Cc1cccc(C2COC3(CCN(C(=O)O[C@H](CO)C(F)(F)F)CC3)C2)c1F (single isomer, unassigned) [Example 71] | human recombinant Monoacylglycerol Lipase (Homo sapiens, UniProt Q99685) | 7.54 |
| O=C(O[C@H](CO)C(F)(F)F)N1CCC2(CC1)CC(c1ccc(C(F)F)nc1)CO2 (single isomer, unassigned) [Example 36] | human recombinant Monoacylglycerol Lipase (Homo sapiens, UniProt Q99685) | 6.62 |
| O=C(O[C@H](CO)C(F)(F)F)N1CCC2(CC1)CC(c1ccc(C(F)F)nc1)CO2 (single isomer, unassigned) [Example 37] | human recombinant Monoacylglycerol Lipase (Homo sapiens, UniProt Q99685) | 7.24 |
| O=C(O[C@H](CO)C(F)(F)F)N1CCC2(CC1)CC(Oc1ccccc1)C2 [Example 63] | human recombinant Monoacylglycerol Lipase (Homo sapiens, UniProt Q99685) | 7.96 |

Would you mind telling me what pIC50 value was observed for O=C(O[C@H](CO)C(F)(F)F)N1CCC2(CC1)CC(c1cc(C(F)F)ccn1)C2 [Example 78] ?
8.05

Record: O=C(O[C@H](CO)C(F)(F)F)N1CCC2(CC1)CC(n1cc(C(F)(F)F)cn1)CO2 (single isomer, unassigned) [Example 9]
7.80

---

Target: human recombinant Monoacylglycerol Lipase (Homo sapiens, UniProt Q99685)
Test: MAGL inactivation (kinact/KI from enzyme progress curves, T=0 min protocol)
Conditions: from plot of Kobs vs. compound concentration, geometric mean of 2-5 determinations (b: ≥6)
Recorded MAGL kinact/KI values for a group of molecules are listed next.

| molecule | MAGL kinact/KI |
| --- | --- |
| O=C(O[C@H](CO)C(F)(F)F)N1CCC2(CC1)CC(Oc1ccc(F)cn1)C2 [Example 88] | 33000 1/s per M |

Would you mind telling me what MAGL kinact/KI value was observed for N#Cc1cccc(C2COC3(CCN(C(=O)O[C@H](CO)C(F)(F)F)CC3)C2)c1F (single isomer, unassigned) [Example 71] ?
17800 1/s per M

Record: O=C(O[C@H](CO)C(F)(F)F)N1CCC2(CC1)CC(c1cccc(C(F)(F)F)n1)CO2 (single isomer, unassigned) [Example 14]
124000^b 1/s per M

Record: O=C(O[C@H](CO)C(F)(F)F)N1CCC2(CCC(n3cc(C(F)(F)F)cn3)CO2)CC1 (single isomer, unassigned) [Example 69]
71900 1/s per M

---

Biological target: human recombinant Monoacylglycerol Lipase (Homo sapiens)
Assay: MAGL enzymatic assay (IC50; 7-HCA substrate added at T=0 min or T=30 min)
Format: biochemical
Settings: MAGL (T = 30 min) IC50, substrate 7-HCA added after 30 minute incubation (T=30 min); geometric mean of 2-5 determinations unless otherwise indicated
Recorded IC50 values for a group of molecules are listed next.
Respond with the bare value in nM.

Please review the following examples before continuing.
| molecule | result_type | value_unit | readout_value |
| --- | --- | --- | --- |
| N#Cc1ccc(F)c(C2COC3(CCN(C(=O)O[C@H](CO)C(F)(F)F)CC3)C2)c1 (single isomer, unassigned) [Example 30] | IC50 | nM | 4 |
| Cc1cn(C2COC3(CCN(C(=O)O[C@H](CO)C(F)(F)F)CC3)C2)nc1C (single isomer, unassigned) | IC50 | nM | 4 |
| O=C(O[C@H](CO)C(F)(F)F)N1CCC2(CC1)CC(Oc1ccc(C(F)F)cn1)C2 | IC50 | nM | 0.6 |
| O=C(O[C@H](CO)C(F)(F)F)N1CCC2(CC1)CC(n1cc(C(F)(F)F)cn1)CO2 (single isomer, unassigned) [Example 9] | IC50 | nM | 3 |

Would you mind telling me what IC50 value was observed for O=C(O[C@H](CO)C(F)(F)F)N1CCC2(CCC(n3cc(C(F)F)cn3)CO2)CC1 (single isomer, unassigned) ?
12

Record: O=C(O[C@H](CO)C(F)(F)F)N1CCC2(CC1)CC(Cn1cc(C(F)(F)F)cn1)CO2 (single isomer, unassigned) [Example 4]
8

Record: O=C(O[C@H](CO)C(F)(F)F)N1CCC2(CC1)CC(c1ccc(C(F)F)cn1)CO2 (single isomer, unassigned)
5

Record: N#Cc1ccc(C2COC3(CCN(C(=O)O[C@H](CO)C(F)(F)F)CC3)C2)c(F)c1 (single isomer, unassigned)
4

Record: O=C(O[C@H](CO)C(F)(F)F)N1CCC2(CC1)CC(c1ccnc(C(F)F)c1)C2
1

Record: N#Cc1cc(C2COC3(CCN(C(=O)O[C@H](CO)C(F)(F)F)CC3)C2)ccc1F (single isomer, unassigned)
3

Record: CN(C(=O)CC1CC1)C1CC2(CCN(C(=O)O[C@H](CO)C(F)(F)F)CC2)C1
2

Record: O=C(O[C@H](CO)C(F)(F)F)N1CCC2(CC1)CC(n1ncc3ccccc31)CO2 (single isomer, unassigned)
1

Record: O=C(O[C@H](CO)C(F)(F)F)N1CCC2(CC1)C[C@@H](n1cc(F)cn1)CO2
15

Record: O=C(O[C@H](CO)C(F)(F)F)N1CCC2(CC1)CC(c1ccccc1F)CO2 (single isomer, unassigned) [Example 25]
2

---

Target: human recombinant Monoacylglycerol Lipase (Homo sapiens)
Experiment: MAGL enzymatic assay (IC50; 7-HCA substrate added at T=0 min or T=30 min)
Assay type: biochemical
Conditions: read-out: MAGL (T=30 min) IC50; 30 minute incubation of compound with MAGL enzyme before addition of 7-HCA substrate
result_type: IC50 (nM)
Respond with the bare value in nM.

| molecule | IC50 / nM |
| --- | --- |
| N#Cc1cccc(C2CCOC3(CCN(C(=O)OC(CO)C(F)(F)F)CC3)C2)c1 (single isomer, unassigned) [diastereomer of Example 73] | 74 |
| N#Cc1cc(C2COC3(CCN(C(=O)OC(CO)C(F)(F)F)CC3)C2)ccc1F (single isomer, unassigned) [diastereomer of Example 28] | 14 |
| O=C(OC(CO)C(F)(F)F)N1CCC2(CC1)CC(c1ccc(C(F)(F)F)cn1)CO2 (single isomer, unassigned) [diastereomer of Example 40] | 9 |
| O=C(OC(CO)C(F)(F)F)N1CCC2(CCC(n3cc(F)cn3)CO2)CC1 (single isomer, unassigned) [diastereomer of Example 70] | 14 |
| Cc1cnn(C2COC3(CCN(C(=O)O[C@H](CO)C(F)(F)F)CC3)C2)c1 (single isomer, unassigned) [diastereomer of Example 24] | 60 |
| CC(C)(C)c1ccn(C2COC3(CCN(C(=O)OC(CO)C(F)(F)F)CC3)C2)n1 (single isomer, unassigned) [diastereomer of Example 52] | 4 |

Would you mind telling me what IC50 value was observed for O=C(O[C@H](CO)C(F)(F)F)N1CCC2(CC1)CC(c1ccc(C(F)F)cn1)CO2 (single isomer, unassigned) [diastereomer of Example 39] ?
31

---

Molecular target: human recombinant Monoacylglycerol Lipase (Homo sapiens)
Sequence (Q99685 1-303): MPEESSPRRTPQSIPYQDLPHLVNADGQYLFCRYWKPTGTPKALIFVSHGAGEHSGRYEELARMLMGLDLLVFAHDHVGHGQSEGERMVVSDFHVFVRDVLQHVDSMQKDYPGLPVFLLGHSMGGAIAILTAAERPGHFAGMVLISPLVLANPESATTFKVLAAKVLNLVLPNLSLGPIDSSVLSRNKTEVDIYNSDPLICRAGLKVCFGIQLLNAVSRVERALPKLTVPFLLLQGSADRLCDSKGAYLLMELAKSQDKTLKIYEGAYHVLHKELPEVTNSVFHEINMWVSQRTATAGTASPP
Test: MAGL enzymatic assay (IC50; 7-HCA substrate added at T=0 min or T=30 min)
Format: biochemical
Settings: substrate 7-HCA added immediately (T=0 min); geometric mean of 2-5 determinations unless otherwise indicated; read-out: MAGL (T = 0 min) IC50
Recorded IC50 values for a group of molecules are listed next.
Respond with the bare value in nM.

Please review the following examples before continuing.
| molecule | result_type | readout_value |
| --- | --- | --- |
| O=C(O[C@H](CO)C(F)(F)F)N1CCC2(CC1)CC(n1cc(C3CC3)cn1)CO2 (mixture of isomers) | IC50 | 68 |
| O=C(O[C@H](CO)C(F)(F)F)N1CCC2(CC1)CC(Oc1cccc(F)c1)C2 | IC50 | 4 |
| CC(C)(C)c1ccn(C2COC3(CCN(C(=O)O[C@H](CO)C(F)(F)F)CC3)C2)n1 (single isomer, unassigned) | IC50 | 4 |

Now for the molecule whose IC50 we want.
Would you mind telling me what IC50 value was observed for O=C(O[C@H](CO)C(F)(F)F)N1CCC2(CC1)CC(c1cccc(C(F)(F)F)n1)CO2 (single isomer, unassigned) [Example 14] ?
5
